TESTED_SYSTEM: Cynomolgus Factor P (cynomolgus)
TEST_SUMMARY: cell-based or functional assay
VALUE_TYPE: Zymosan-C3b IC50 (nM), 10% serum
# output: bare number, implied unit nM

For orientation, consider the following solved cases.
For this binder ( NVS962-S31A (Fab, V domains shown, NVS962 with heavy chain serine 31 replaced with alanine) VH: EVQLVQSGAEVKKPGSSVKVSCKASGGTFNAYAISWVRQAPGQGLEWMGRIIPIFGTANYAQKFQGRVTITADESTSTAYMELSSLRSEDTAVYYCARHGGYSFDSWGQGTLVTVSS VL: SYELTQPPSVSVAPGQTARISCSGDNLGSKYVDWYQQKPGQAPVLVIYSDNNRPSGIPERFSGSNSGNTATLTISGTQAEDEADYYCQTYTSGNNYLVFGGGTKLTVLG ), measured Zymosan-C3b IC50 (nM), 10% serum is 3.12

Sure, the documented Zymosan-C3b IC50 (nM), 10% serum for NVS962-S (Fab, V domains shown, NVS962 with heavy chain N30 replaced with serine) VH: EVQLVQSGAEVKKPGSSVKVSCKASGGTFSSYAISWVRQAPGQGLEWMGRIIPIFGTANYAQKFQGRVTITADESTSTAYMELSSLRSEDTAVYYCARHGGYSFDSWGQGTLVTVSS VL: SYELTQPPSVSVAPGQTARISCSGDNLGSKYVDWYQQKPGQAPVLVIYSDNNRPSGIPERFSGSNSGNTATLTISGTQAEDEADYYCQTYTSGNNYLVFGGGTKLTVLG is 1.94

Continuing:
Looking up NVS965-Q (Fab, V domains shown, NVS965 with heavy chain N30 replaced with glutamine) VH: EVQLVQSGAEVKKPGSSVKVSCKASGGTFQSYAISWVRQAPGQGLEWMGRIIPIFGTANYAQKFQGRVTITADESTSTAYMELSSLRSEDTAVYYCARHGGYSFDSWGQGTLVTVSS VL: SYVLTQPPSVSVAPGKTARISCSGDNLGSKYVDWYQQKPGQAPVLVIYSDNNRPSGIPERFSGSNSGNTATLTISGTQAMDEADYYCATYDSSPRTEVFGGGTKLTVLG , I see its Zymosan-C3b IC50 (nM), 10% serum listed as 3.3
